Measured values drawn from the supplement of paper PMC7125110 for this set.

B1: glmS ribozyme (parent)
chain: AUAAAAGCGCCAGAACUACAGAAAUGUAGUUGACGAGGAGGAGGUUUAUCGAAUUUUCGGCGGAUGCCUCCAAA

Variants of: B1
Experiment: self-cleavage kobs at 160 uM GlcN6P; higher = faster cleavage; RNA array
Conditions: with glucosamine-6-phosphate
This sample holds only a part of the variants without activity.
Known self-cleavage kobs at 160 uM GlcN6P of a selection of variants

mutation_descriptor: C8G G66A
self-cleavage kobs at 160 uM GlcN6P: < 1e-05 s⁻¹
//
mutation_descriptor: A36C G44A
self-cleavage kobs at 160 uM GlcN6P: < 1e-05 s⁻¹
//
mutation_descriptor: U54G U65G
self-cleavage kobs at 160 uM GlcN6P: 0.00012 s⁻¹
//
mutation_descriptor: G32A G60U
self-cleavage kobs at 160 uM GlcN6P: < 1e-05 s⁻¹
//
mutation_descriptor: C10G A12U U31A A33U G63A
self-cleavage kobs at 160 uM GlcN6P: < 1e-05 s⁻¹
//
mutation_descriptor: A6U G59C C71G
self-cleavage kobs at 160 uM GlcN6P: < 1e-05 s⁻¹
//
mutation_descriptor: G32A A53G
self-cleavage kobs at 160 uM GlcN6P: 0.000222 s⁻¹
//
mutation_descriptor: G66C C68G
self-cleavage kobs at 160 uM GlcN6P: 0.000523 s⁻¹
//
mutation_descriptor: C8G G60A C61A
self-cleavage kobs at 160 uM GlcN6P: < 1e-05 s⁻¹
//
mutation_descriptor: G13C G40U G59C
self-cleavage kobs at 160 uM GlcN6P: < 1e-05 s⁻¹
//
mutation_descriptor: U31C G32C C70G
self-cleavage kobs at 160 uM GlcN6P: 0.000701 s⁻¹
//
mutation_descriptor: G29U G32C A36G
self-cleavage kobs at 160 uM GlcN6P: < 1e-05 s⁻¹
//
mutation_descriptor: A42C C68G
self-cleavage kobs at 160 uM GlcN6P: < 1e-05 s⁻¹
//
mutation_descriptor: C11A G43U U49C C61A G63C
self-cleavage kobs at 160 uM GlcN6P: < 1e-05 s⁻¹
//
mutation_descriptor: G41C C70U
self-cleavage kobs at 160 uM GlcN6P: 9.61e-05 s⁻¹
//
mutation_descriptor: C61G U69C
self-cleavage kobs at 160 uM GlcN6P: 6.31e-05 s⁻¹
//
mutation_descriptor: G9U U30G G35U G51A
self-cleavage kobs at 160 uM GlcN6P: < 1e-05 s⁻¹
//
mutation_descriptor: G13U G21U G37C
self-cleavage kobs at 160 uM GlcN6P: < 1e-05 s⁻¹
//
mutation_descriptor: G7U G40C G44U U47C G51U
self-cleavage kobs at 160 uM GlcN6P: < 1e-05 s⁻¹
//
mutation_descriptor: C16U U54A
self-cleavage kobs at 160 uM GlcN6P: 0.00185 s⁻¹
//
mutation_descriptor: C10G U54G
self-cleavage kobs at 160 uM GlcN6P: < 1e-05 s⁻¹
//
mutation_descriptor: A6U G43U U57A
self-cleavage kobs at 160 uM GlcN6P: < 1e-05 s⁻¹
//
mutation_descriptor: C8G G59U
self-cleavage kobs at 160 uM GlcN6P: < 1e-05 s⁻¹
//
mutation_descriptor: G7U U30A
self-cleavage kobs at 160 uM GlcN6P: < 1e-05 s⁻¹
//
mutation_descriptor: G37C G44A
self-cleavage kobs at 160 uM GlcN6P: < 1e-05 s⁻¹
//
mutation_descriptor: A12G G35U G51U C68G U69A
self-cleavage kobs at 160 uM GlcN6P: < 1e-05 s⁻¹
//
mutation_descriptor: G44U A48U
self-cleavage kobs at 160 uM GlcN6P: < 1e-05 s⁻¹
//
mutation_descriptor: A36U U49C
self-cleavage kobs at 160 uM GlcN6P: < 1e-05 s⁻¹
//
mutation_descriptor: G29C A36U G43C
self-cleavage kobs at 160 uM GlcN6P: < 1e-05 s⁻¹
//
mutation_descriptor: C16G A53U
self-cleavage kobs at 160 uM GlcN6P: 0.000238 s⁻¹
//
mutation_descriptor: A52C G59U
self-cleavage kobs at 160 uM GlcN6P: < 1e-05 s⁻¹
//
mutation_descriptor: U46C
self-cleavage kobs at 160 uM GlcN6P: 0.000364 s⁻¹
//
mutation_descriptor: C34G G37A
self-cleavage kobs at 160 uM GlcN6P: < 1e-05 s⁻¹
